system: P388 leukemia ip, CD2F1 mice, survival T/C; test: NCI In Vivo Anticancer Drug Screen. Data for tumor model P388 Leukemia (intraperitoneal) in CD2F1 (CDF1) mice; details: endpoint: median survival time; dose: 50.0 mg/kg/injection; schedule: Q04DX003 (ip); vehicle: water
Toxic doses and inconclusive results are not listed. How the source made its calls: active means survival T/C of 150% or more; inactive means T/C below 125% in these data.
# output must be one of 1.0 = active, 0.0 = inactive

O=N[O-].O=N[O-].[Co].[NH-]CC[NH-].[NH-]CC[NH-] :: 0.0
CCN(Cc1ccc(Cl)c(Cl)c1)c1ccc2nc(N)nc(N)c2c1C :: 1.0
O=C(O)C1(C(=O)O)CCC1.[NH2-].[NH2-].[Pt+2] :: 1.0

With those in mind, consider the next compound.
Hi, do you know how `COc1cc2c(cc1OC)-c1c(C)c3ccc(OC)c(NCCO)c3c[n+]1CC2` came out in this test?
0.0

###

Test system: P388 leukemia ip, CD2F1 mice, survival T/C
Test: NCI In Vivo Anticancer Drug Screen. Data for tumor model P388 Leukemia (intraperitoneal) in CD2F1 (CDF1) mice
Conditions: endpoint: median survival time; dose: 100.0 mg/kg/injection; schedule: Q01DX005 (ip); vehicle: Klucel (hydroxypropylcellulose) (HPC)
Experimental: The antitumor activity of compounds was measured in mice bearing transplantable tumors. Survival or tumor size were measured and the results are expressed as the measurement made in the treated group (T) divided by the measurement made in the vehicle treated control group (C). The tumor model used in this assay is P388 Leukemia (intraperitoneal) in CD2F1 (CDF1) mice
Inconclusive results and toxic doses are left out. The calls were made as follows: active = survival T/C of 150% or more; inactive = T/C below 125% in these data.
# output must be one of yes (1) = active, no (0) = inactive

CCOC(=O)C(C(C)N1CCOCC1)N1CCOCC1 (stereo unspecified) :: no (0)
CCOC(=O)N1CCN(C(=O)c2nc3ccccc3[nH]2)CC1 :: no (0)
Nc1c(/C=C/c2cc3ccc(C4=NCCN4)cc3[nH]2)[nH]c2cc(C3=NCCN3)ccc12 :: yes (1)
COc1cc(CSc2ccccc2)cc(OC)c1N :: no (0)
O=C(CBr)NCC1OC(n2cnc3c(=O)[nH]cnc32)C(O)C1O (stereo unspecified) :: no (0)
O=S1(=O)CC(N2CCOCC2)C2=C(O1)c1ccccc1OCC2 (stereo unspecified) :: no (0)

Hi, do you know how `O=C1c2cccc([N+](=O)[O-])c2C(=O)c2c1oc1ccc3ccccc3c21` came out in this test?
no (0)

Hi, do you know how `Cc1cc(=O)oc2c1c(=O)[nH]n2-c1ccccc1` came out in this test?
no (0)

Hi, do you know how CC1=C(C)C(N(C)C)CS(=O)(=O)O1 (stereo unspecified) came out in this test?
no (0)

Hi, do you know how CCOc1cc2c(cc1C(C)c1ccc(OCc3ccccc3)cc1)OCO2 (stereo unspecified) came out in this test?
no (0)

Hi, do you know how `O=P(c1ccccc1)(c1ccccc1)c1ccccc1OCc1cccc(COc2ccccc2P(=O)(c2ccccc2)c2ccccc2)n1` came out in this test?
no (0)

###

Reported T/C values follow for various molecules
test system: P388 leukemia ip, CD2F1 mice, survival T/C; assay: NCI In Vivo Anticancer Drug Screen. Data for tumor model P388 Leukemia (intraperitoneal) in CD2F1 (CDF1) mice; details: endpoint: median survival time; dose: 50.0 mg/kg/injection; schedule: Q01DX009 (ip); vehicle: saline + alcohol; higher = longer survival
Toxic doses and inconclusive results are not listed.

CCCCCCC1(/C=C/c2ccc(Cl)cc2Cl)OCCCO1 :: 94 % of control
CC(C)=CCC/C(C)=C/CC/C(C)=C/CC/C(C)=C/CC/C(C)=C/CC/C(C)=C/CC/C(C)=C/CC/C(C)=C/CC/C(C)=C/CO :: 107 % of control
O=C(c1ccccc1)C1(Cl)CCCCC1 :: 91 % of control

Check the records and state T/C for `O=C1C(CO)=C[C@H](O)[C@H]2O[C@@H]12`
106 % of control

###

tested on: P388 leukemia ip, CD2F1 mice, survival T/C; assay: NCI In Vivo Anticancer Drug Screen. Data for tumor model P388 Leukemia (intraperitoneal) in CD2F1 (CDF1) mice; details: endpoint: median survival time; dose: 240.0 mg/kg/injection; schedule: Q01DX005 (ip); vehicle: Klucel (hydroxypropylcellulose) (HPC); higher = longer survival
Inconclusive results and toxic doses are left out.
QUANTITY_MEASURED: T/C

Check the records and state T/C for `O=c1[nH]c2cc(Cl)ccc2nc1/C=C(\O)c1ccccn1`
93 % of control

Check the records and state T/C for `COC(=O)C1(C(=O)OC)O[C@@H](c2ccccc2)[C@H]2C(=O)N(C)C(=O)[C@H]21`
110 % of control

Check the records and state T/C for `COc1ccc(-c2cc(=O)c3c(O)cc(O)cc3o2)cc1Oc1ccc(-c2cc(=O)c3c(O)cc(O)cc3o2)cc1`
88 % of control

Check the records and state T/C for `Cc1ccc(NC(=O)OCCN(C)C(=O)Nc2ccc(C)cc2C)c(C)c1`
86 % of control

Check the records and state T/C for `c1ccc2c(c1)CCc1c-2n[nH]c1-c1[nH]nc2c1CCc1ccccc1-2`
88 % of control

Check the records and state T/C for `CCO/C=C(\C)CC1([N+](=O)[O-])C(=O)c2ccccc2C1=O`
117 % of control

Check the records and state T/C for `Cc1cc(NC(=O)Nc2cc(Cl)ccc2C)no1`
93 % of control

Check the records and state T/C for `O=C1C(=O)N(c2ccccc2)[C@@]2(c3ccccc3)C(=Nc3ccccc3)OC(c3ccccc3)=C12`
88 % of control

Check the records and state T/C for COC1OCCC(n2c(C)cc3c(N)ncnc32)C1O (centres undefined)
96 % of control

Check the records and state T/C for COc1ccc(C2OC(N)=C(O)C2=O)cc1OC (centres undefined)
95 % of control

###

tested on: P388 leukemia ip, CD2F1 mice, survival T/C; assay: NCI In Vivo Anticancer Drug Screen. Data for tumor model P388 Leukemia (intraperitoneal) in CD2F1 (CDF1) mice; conditions: endpoint: median survival time; dose: 100.0 mg/kg/injection; schedule: Q01DX001 (ip); vehicle: saline with Tween-80; higher = longer survival
Toxic doses and inconclusive results are not listed.
Reported T/C values follow for various compounds

Cc1ccc(S(=O)(=O)OCCOc2ccc3ccccc3c2-c2c(OCCOc3ccc4ccccc4c3-c3c(OCCOS(=O)(=O)c4ccc(C)cc4)ccc4ccccc34)ccc3ccccc23)cc1 :: 101 % of control
CC12OCCC1C(c1ccccc1[N+](=O)[O-])Nc1ccccc12 (centres undefined) :: 114 % of control
CC1(C)O[Te]2(OC1(C)C)OC(C)(C)C(C)(C)O2 :: 93 % of control

Check the records and state T/C for `CCn1c(C)cc(=NC(=O)c2ccccc2O)n1-c1ccccc1`
103 % of control

###

test system: P388 leukemia ip, CD2F1 mice, survival T/C; test: NCI In Vivo Anticancer Drug Screen. Data for tumor model P388 Leukemia (intraperitoneal) in CD2F1 (CDF1) mice; conditions: endpoint: median survival time; dose: 6.25 mg/kg/injection; schedule: Q01DX005 (ip); vehicle: Klucel (hydroxypropylcellulose) (HPC); higher = longer survival
Toxic doses and inconclusive results are not listed.
Reported T/C values follow for various compounds

Take a look at these entries with their results.
C1CN(CC2CCC(CN3CCOCC3)O2)CCO1 (stereo unspecified) :: 97 % of control
CN=C(c1ccc(NC(=O)c2cc(N)cc(C(=O)Nc3ccc(C(=NC)N(C)C)cc3)c2)cc1)N(C)C :: 104 % of control
O=C(OCC1OC(n2cc(C(F)(F)F)c(=O)[nH]c2=O)CC1O)c1ccc([N+](=O)[O-])cc1 (stereo unspecified) :: 110 % of control
CN=C(NC)c1ccc(NC(=O)c2cc(C(=O)Nc3ccc(C(=NC)NC)cc3)cc([N+](=O)[O-])c2)cc1 :: 107 % of control
N#CSCCC(=O)Nc1ccccc1 :: 102 % of control

For the next question, use this compound.
Check the records and state T/C for `CCCCN(CCCC)c1ccc(C(=N)c2ccc(N(C)C)cc2)cc1`
106 % of control

###

tested on: P388 leukemia ip, CD2F1 mice, survival T/C; test: NCI In Vivo Anticancer Drug Screen. Data for tumor model P388 Leukemia (intraperitoneal) in CD2F1 (CDF1) mice; settings: endpoint: median survival time; dose: 12.5 mg/kg/injection; schedule: Q01DX005 (ip); vehicle: Klucel (hydroxypropylcellulose) (HPC); higher = longer survival
Toxic doses and inconclusive results are not listed.
QUANTITY_MEASURED: T/C

CCN(CC)CCOC(=O)Cc1ccc2c(=O)cc(-c3ccc(C)cc3)oc2c1 :: 109 % of control

Write down measured T/C (P388 leukemia ip, CD2F1 mice, survival T/C) for this compound. `CCCNc1ccnc(F)n1`
100 % of control

Write down measured T/C (P388 leukemia ip, CD2F1 mice, survival T/C) for this compound. O=C(/C=C/c1ccccc1)OCC1=C[C@@H](O)[C@@H]2C=CO[C@@H](OC3OC(CO)C(O)C(O)C3O)[C@H]12 (stereo partly specified)
100 % of control

Write down measured T/C (P388 leukemia ip, CD2F1 mice, survival T/C) for this compound. `C=C(Cl)C(=NC(C)(C)C)Nc1cccc(Cl)c1`
114 % of control

Write down measured T/C (P388 leukemia ip, CD2F1 mice, survival T/C) for this compound. `O=S(=O)(CCNCCCCC1CCCCC1)SCCNCCCCC1CCCCC1`
101 % of control

Write down measured T/C (P388 leukemia ip, CD2F1 mice, survival T/C) for this compound. C1CN(CC2CCC(CN3CCOCC3)O2)CCO1 (stereo unspecified)
100 % of control

Write down measured T/C (P388 leukemia ip, CD2F1 mice, survival T/C) for this compound. `COC(=O)[C@H]1[C@H]2C[C@@H]3c4[nH]c5cc(OC)ccc5c4CCN3C[C@H]2C[C@@H](OC(=O)c2cccc(N(C)C)c2)[C@@H]1OC`
95 % of control

Write down measured T/C (P388 leukemia ip, CD2F1 mice, survival T/C) for this compound. `CCCCOC(=O)NP1(=O)NCc2ccccc2CN1`
93 % of control

Write down measured T/C (P388 leukemia ip, CD2F1 mice, survival T/C) for this compound. `COC(=O)NC1=Nc2ccc(Cl)cc2NS1`
102 % of control

Write down measured T/C (P388 leukemia ip, CD2F1 mice, survival T/C) for this compound. `CN=C(NC)c1ccc(NC(=O)c2cc(C(=O)Nc3ccc(C(=NC)NC)cc3)cc([N+](=O)[O-])c2)cc1`
119 % of control

Write down measured T/C (P388 leukemia ip, CD2F1 mice, survival T/C) for this compound. `CC(C)N(C(C)C)p1n(C(C)(C)C)n1C(C)(C)C`
108 % of control
